Assay Info: Solvent solubility test
Format: physicochemical
Set-up: key: A: Soluble; B: Soluble, but undissolved residue was visually confirmed; C: Insoluble
Condition Context: isopropanol; 3% by mass, stood overnight at room temperature (15 to 25° C.), visually observed
Protocol: (Solvent Solubility Test) For each sample and solvent, a sample and a solvent shown in Table 1 below were mixed in a concentration of 3% by mass, and a mixture was shaken by hand for about 10 minutes, and then allowed to stand overnight at a room temperature (temperature of 15 to 25° C.). […]
Measured Quantity: Solubility in IPA

1. CCN(CC)C(=O)CCC1(CCC(=O)N(CC)CC)c2ccccc2-c2ccccc21: A
2. NC(=O)CCC1(CCC(N)=O)c2ccccc2-c2ccccc21 [AAD-FL, 9,9-di-(β-carbamoyl-ethyl)fluorene, reference compound]: C
3. CN(C)C(=O)CCC1(CCC(=O)N(C)C)c2ccccc2-c2ccccc21: C
4. CC(C)NC(=O)CCC1(CCC(=O)NC(C)C)c2ccccc2-c2ccccc21: C
